biological target: SHP2 protein (Homo sapiens); assay: Measurement of SHP2 protein degradation in MV-4-11 cells (western blotting); assay type: cell-based; set-up: endogenous in cells; details: 0.01 μM, harvested after 24 hours
Sequence (Q06124 whole entry): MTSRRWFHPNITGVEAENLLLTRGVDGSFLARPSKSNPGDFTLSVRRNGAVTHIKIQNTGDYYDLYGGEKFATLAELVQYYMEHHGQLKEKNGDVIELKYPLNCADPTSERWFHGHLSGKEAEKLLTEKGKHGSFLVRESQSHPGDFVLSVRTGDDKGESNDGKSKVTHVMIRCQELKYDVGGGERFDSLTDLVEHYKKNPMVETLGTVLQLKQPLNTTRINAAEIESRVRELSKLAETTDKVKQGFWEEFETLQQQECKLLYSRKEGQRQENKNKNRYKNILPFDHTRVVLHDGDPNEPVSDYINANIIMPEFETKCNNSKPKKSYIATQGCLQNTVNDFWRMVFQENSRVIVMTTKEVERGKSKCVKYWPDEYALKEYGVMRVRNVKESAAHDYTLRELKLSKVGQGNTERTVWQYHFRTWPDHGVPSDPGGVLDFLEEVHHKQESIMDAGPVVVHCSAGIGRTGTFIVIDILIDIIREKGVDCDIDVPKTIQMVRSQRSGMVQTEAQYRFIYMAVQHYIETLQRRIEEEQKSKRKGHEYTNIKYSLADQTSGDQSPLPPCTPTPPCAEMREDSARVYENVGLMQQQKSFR
measurementKind: SHP2% degradation (%)

Cc1ncsc1-c1ccc(CNC(=O)[C@@H]2C[C@@H](O)CN2C(=O)[C@@H](NC(=O)C2(F)CC2)C(C)(C)C)c(OC2CCN(C(=O)C3CCN(c4nccc(Sc5cnc(N6CCC(C)(CN)CC6)cn5)c4Cl)CC3)CC2)c1	85.2
Cc1ncsc1-c1ccc(CNC(=O)[C@@H]2C[C@@H](O)CN2C(=O)[C@@H](NC(=O)C2(F)CC2)C(C)(C)C)c(OC2CC3(CCN(C(=O)C4CCN(c5nccc(Sc6cnc(N7CCC(C)(CN)CC7)cn6)c5Cl)CC4)CC3)C2)c1	65.7
CC(=O)N[C@H](C(=O)N1C[C@H](O)C[C@H]1C(=O)NCc1ccc(-c2scnc2C)cc1O[C@H]1CC[C@H](C(=O)N2CC(Nc3cccc(Sc4cnc(N5CCC6(CC5)CO[C@@H](C)[C@H]6N)cn4)c3Cl)C2)CC1)C(C)(C)C	97.2
Cc1ncsc1-c1ccc(CNC(=O)[C@@H]2C[C@@H](O)CN2C(=O)[C@@H](NC(=O)C2(F)CC2)C(C)(C)C)c(O[C@H]2CC[C@H](C(=O)N3CCC(Nc4nccc(Sc5cnc(N6CCC(C)(CN)CC6)cn5)c4Cl)CC3)CC2)c1	74.2
